Attribution: patent US20120142667A1

# measured target: ZAP-70 (Homo sapiens, UniProt P43403)
# Construct: endogenous in cells
# Sequence (P43403 whole entry): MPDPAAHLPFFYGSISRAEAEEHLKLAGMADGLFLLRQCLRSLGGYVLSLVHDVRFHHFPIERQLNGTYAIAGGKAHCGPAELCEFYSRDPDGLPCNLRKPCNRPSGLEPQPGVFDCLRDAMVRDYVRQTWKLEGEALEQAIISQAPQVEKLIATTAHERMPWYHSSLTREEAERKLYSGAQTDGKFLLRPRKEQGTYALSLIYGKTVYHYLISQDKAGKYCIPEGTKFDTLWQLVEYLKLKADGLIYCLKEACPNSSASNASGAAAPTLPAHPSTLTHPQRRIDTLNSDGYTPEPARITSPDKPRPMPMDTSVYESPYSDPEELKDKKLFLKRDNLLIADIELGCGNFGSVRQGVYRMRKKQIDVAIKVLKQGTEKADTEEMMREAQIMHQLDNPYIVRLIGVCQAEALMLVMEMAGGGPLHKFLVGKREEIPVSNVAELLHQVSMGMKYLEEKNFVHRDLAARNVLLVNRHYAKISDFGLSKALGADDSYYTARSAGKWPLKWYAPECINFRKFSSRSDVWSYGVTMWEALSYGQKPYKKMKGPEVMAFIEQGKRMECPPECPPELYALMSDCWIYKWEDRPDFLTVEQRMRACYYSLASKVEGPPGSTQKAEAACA
# run description: ZAP-70 kinobeads assay
# test context: cell lysate
Where a name gives a salt, the structure may show the parent alone.
assay readout: IC50

>>> test_value("COc1ccc(Nc2nc(Nc3cccc(F)c3OC)ncc2Cl)c(NS(C)(=O)=O)c1 [Example 61, hydrochloride]")
"1000 to 10000 nM"
>>> test_value("COc1ccc(Nc2nc(Nc3ccc(OC)nc3OC)ncc2Cl)c(NS(C)(=O)=O)c1")
"100 to 1000 nM"
>>> test_value("COc1ccc(Nc2ncc(Cl)c(Nc3ccc(OC)cc3NS(C)(=O)=O)n2)c(F)c1")
"100 to 1000 nM"
>>> test_value("COc1ccc(Nc2nc(Nc3ccc(OCCN)cc3F)ncc2Cl)c(NS(C)(=O)=O)c1")
"≤ 100 nM"
>>> test_value("COc1ccc(Nc2nc(Nc3cccc(OCCCO)c3C)ncc2Cl)c(NS(C)(=O)=O)c1")
"100 to 1000 nM"
>>> test_value("COc1ccc(Nc2nc(Nc3cnc(OC)cc3OC)ncc2Cl)c(NS(C)(=O)=O)c1")
"≤ 100 nM"
>>> test_value("COc1ccc(Nc2nc(Nc3cc(OC)c(OC)cc3OC)ncc2F)c(NS(C)(=O)=O)c1")
"100 to 1000 nM"
>>> test_value("COc1ccc(Nc2nc(Nc3cc(CCC(N)=O)ccc3OC)ncc2Cl)c(NS(C)(=O)=O)c1")
"100 to 1000 nM"
